Experimental system: T1, human GDNF structured region, residues 110-211 (hGDNF^mat) (human, UniProt P39905 110-211)
T1 chain: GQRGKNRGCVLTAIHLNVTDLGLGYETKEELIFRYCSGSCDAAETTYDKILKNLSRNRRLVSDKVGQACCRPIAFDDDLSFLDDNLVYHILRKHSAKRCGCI
Assay summary: SPR
Quantity: pKd
Formally, pKd is defined as -log10 of the concentration c, with c in mol/L.

[Q] Which measured pKd value corresponds to hGFRα1^D1-CT-L287E (protein) DRLDCVKASDQCLKEQSCSTKYRTLRQCVAGKETNFSLASGLEAKDECRSAMEALKQKSLYNCRCKRGMKKEKNCLRIYWSMYQSLQGNDLLEDSPYEPVNSRLSDIFRVVPFISDVFQQVEHIPKGNNCLDAAKACNLDDICKKYRSAYITPCTTSVSNDVCNRRKCHKALRQFFDKVPAKHSYGMLFCSCRDIACTERRRQTIVPVCSYEEREKPNCLNLQDSCKTNYICRSRLADFFTNCQPESRSVSSCLKENYADCLEAYSGLIGTVMTPNYIDSSSLSVAPWCDCSNSGNDLEECLKFLNFFKDNTCLKNAIQAFGNGSDVTVWQPAFPVQTTTATTTTALRVKNKPLGPAGSENEIPTHVLPPCANLQAQKLKSNVSGNTHLCISNGNYEKEG ?
[A] 7.48

We next turn to a different binder, shown below.
[Q] Which measured pKd value corresponds to human GFRα1 residues 25-424 (hGFRα1^D1-CT) (domain or fragment) DRLDCVKASDQCLKEQSCSTKYRTLRQCVAGKETNFSLASGLEAKDECRSAMEALKQKSLYNCRCKRGMKKEKNCLRIYWSMYQSLQGNDLLEDSPYEPVNSRLSDIFRVVPFISDVFQQVEHIPKGNNCLDAAKACNLDDICKKYRSAYITPCTTSVSNDVCNRRKCHKALRQFFDKVPAKHSYGMLFCSCRDIACTERRRQTIVPVCSYEEREKPNCLNLQDSCKTNYICRSRLADFFTNCQPESRSVSSCLKENYADCLLAYSGLIGTVMTPNYIDSSSLSVAPWCDCSNSGNDLEECLKFLNFFKDNTCLKNAIQAFGNGSDVTVWQPAFPVQTTTATTTTALRVKNKPLGPAGSENEIPTHVLPPCANLQAQKLKSNVSGNTHLCISNGNYEKEG ?
[A] 7.49

The reported measurements were obtained from paper PMC10661694.
